Molecular target: T1, His9-hMSR1 (human MSR1 extracellular domain) (Homo sapiens, UniProt P21757)
T1 construct: human MSR1 extracellular domain expressed with a N-terminal nonahistidine tag; His9 (nonahistidine) (N); purchased R&D Systems 2708-MS
T1 sequence (P21757 77-451 limits assumed): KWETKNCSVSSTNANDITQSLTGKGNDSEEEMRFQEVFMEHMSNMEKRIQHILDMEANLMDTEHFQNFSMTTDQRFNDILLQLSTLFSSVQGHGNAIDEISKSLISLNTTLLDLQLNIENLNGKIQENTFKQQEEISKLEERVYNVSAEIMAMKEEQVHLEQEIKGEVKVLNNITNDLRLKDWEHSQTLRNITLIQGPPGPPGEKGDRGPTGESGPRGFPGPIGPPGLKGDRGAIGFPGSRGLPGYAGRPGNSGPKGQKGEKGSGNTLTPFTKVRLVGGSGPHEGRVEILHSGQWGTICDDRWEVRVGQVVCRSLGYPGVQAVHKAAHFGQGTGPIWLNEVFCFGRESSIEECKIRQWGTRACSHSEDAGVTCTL
Test: Biacore surface plasmon resonance binding kinetics of anti-MSR1 mAbs, antibody-capture format
Details: 37° C.; analyte His9-hMSR1; * = no dissociation observed, kd manually fixed at 1.00E−05; NB = no binding observed
Hi! Could you tag entries with kd below 0.0001 s⁻¹ as TRUE, and those at or above as FALSE? Much appreciated.

Hello, I'm reviewing records and need to know if kd of H1H27747P-N297Q (antibody, V domains shown) VH: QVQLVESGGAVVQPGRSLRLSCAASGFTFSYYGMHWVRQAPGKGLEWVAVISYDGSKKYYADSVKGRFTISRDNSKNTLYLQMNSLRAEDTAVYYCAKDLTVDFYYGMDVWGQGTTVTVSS VL: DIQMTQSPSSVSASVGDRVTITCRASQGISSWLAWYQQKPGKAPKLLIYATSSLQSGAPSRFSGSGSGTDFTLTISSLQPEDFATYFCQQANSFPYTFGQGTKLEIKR is below 0.0001 s⁻¹. Could you check?
FALSE

Quick one: H1H21231N: "anti-MSR1 antibodies ... (21227N, 21231N, 21234N) were produced with the original human Fcγ portion"; "H1H" = human IgG1 Fc (antibody, V domains shown, human IgG1 Fc, "anti-MSR1 antibodies ; (21227N, 21231N, 21234N) were produced with the original human Fcγ portion"; "H1H" = human IgG1 Fc) VH: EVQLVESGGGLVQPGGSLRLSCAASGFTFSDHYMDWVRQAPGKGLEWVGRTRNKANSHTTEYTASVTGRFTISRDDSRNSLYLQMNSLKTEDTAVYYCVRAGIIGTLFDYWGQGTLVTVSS VL: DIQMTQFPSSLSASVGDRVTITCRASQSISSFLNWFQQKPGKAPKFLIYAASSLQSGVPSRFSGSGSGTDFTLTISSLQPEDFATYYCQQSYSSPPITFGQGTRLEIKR
TRUE

Quick one: H1H27734P-N297Q: one of "Twelve anti-MSR1 antibodies"; "made with an N297Q single point mutation in human Fcγ portion" (antibody, V domains shown) VH: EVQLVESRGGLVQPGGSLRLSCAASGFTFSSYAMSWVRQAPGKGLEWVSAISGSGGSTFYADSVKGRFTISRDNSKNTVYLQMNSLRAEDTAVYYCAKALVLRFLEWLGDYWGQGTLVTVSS VL: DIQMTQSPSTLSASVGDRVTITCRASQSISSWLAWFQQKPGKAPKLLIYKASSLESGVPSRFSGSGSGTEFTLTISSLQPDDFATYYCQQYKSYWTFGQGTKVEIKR
FALSE

Quick one: H1H21231N-N297Q: modified version of "21231N (H1H21231N-N297Q) anti-MSR1 antibodies" with "a N297Q single point mutation" (antibody, V domains shown) VH: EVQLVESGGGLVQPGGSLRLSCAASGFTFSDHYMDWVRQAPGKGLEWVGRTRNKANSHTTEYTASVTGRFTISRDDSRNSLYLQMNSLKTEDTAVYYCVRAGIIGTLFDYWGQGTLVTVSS VL: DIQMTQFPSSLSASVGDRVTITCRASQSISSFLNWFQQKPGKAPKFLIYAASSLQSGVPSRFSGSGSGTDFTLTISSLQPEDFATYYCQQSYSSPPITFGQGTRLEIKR
FALSE

Quick one: H1H27754P-N297Q: one of "Twelve anti-MSR1 antibodies"; "made with an N297Q single point mutation in human Fcγ portion" (antibody, V domains shown) VH: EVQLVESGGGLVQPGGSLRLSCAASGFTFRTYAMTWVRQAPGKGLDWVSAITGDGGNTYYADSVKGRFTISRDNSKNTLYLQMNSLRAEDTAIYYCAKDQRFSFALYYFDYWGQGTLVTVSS VL: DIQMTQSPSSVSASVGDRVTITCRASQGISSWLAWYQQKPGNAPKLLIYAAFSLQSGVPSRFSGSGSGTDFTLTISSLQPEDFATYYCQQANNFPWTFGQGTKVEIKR
TRUE
